Task for the reader: assign each of the following compounds its reported IC50.
molecular target: human full-length MKNK1 (Homo sapiens (Human), UniProt Q9BUB5, T344D); test: MKNK1 kinase high ATP assay (TR-FRET); format: biochemical; details: 2 mM ATP, 15 min preincubation
Sequence (Q9BUB5 other isoform, or with tags, fused parts or gaps T344D): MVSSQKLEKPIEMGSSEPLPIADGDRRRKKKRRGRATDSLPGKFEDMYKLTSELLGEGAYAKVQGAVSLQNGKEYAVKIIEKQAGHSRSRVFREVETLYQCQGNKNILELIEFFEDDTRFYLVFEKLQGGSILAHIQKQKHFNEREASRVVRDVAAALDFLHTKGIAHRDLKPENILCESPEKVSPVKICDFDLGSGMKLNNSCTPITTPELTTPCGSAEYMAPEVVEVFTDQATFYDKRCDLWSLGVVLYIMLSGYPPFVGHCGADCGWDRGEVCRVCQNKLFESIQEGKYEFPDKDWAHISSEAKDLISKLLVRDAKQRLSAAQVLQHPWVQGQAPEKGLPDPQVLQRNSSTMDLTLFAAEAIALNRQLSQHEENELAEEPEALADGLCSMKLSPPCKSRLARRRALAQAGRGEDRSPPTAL

IN: Given the compound CC(C)(C)CNCCOc1ccc2ncc(-c3cc4ccccc4o3)n2n1 [Example 12] , what is its reported IC50?
OUT: 25 nM

IN: Given the compound c1ccc2oc(-c3cnc4ccc(OCCNCC5CC5)nn34)cc2c1 [Example 6] , what is its reported IC50?
OUT: 18 nM

IN: Given the compound c1ccc2oc(-c3cnc4ccc(O[C@@H]5CCNC5)nn34)cc2c1 [Example 31] , what is its reported IC50?
OUT: 49 nM

IN: Given the compound c1ccc2oc(-c3cnc4ccc(OCCNC5CC5)nn34)cc2c1 [Example 17] , what is its reported IC50?
OUT: 36 nM

IN: Given the compound CC(C)NCC(Oc1ccc2ncc(-c3cc4ccccc4o3)n2n1)c1ccccc1 (centres unmarked) [Example 27] , what is its reported IC50?
OUT: 75 nM

// provenance: patent US9777004B2
